B1: TPR 5TU (parent)
chain: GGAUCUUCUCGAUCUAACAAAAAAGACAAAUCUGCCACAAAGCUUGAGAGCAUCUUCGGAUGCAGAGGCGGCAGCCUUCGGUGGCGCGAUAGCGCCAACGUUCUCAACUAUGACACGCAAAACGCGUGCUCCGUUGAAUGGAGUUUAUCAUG

- Variants of: B1
- TEST SUMMARY: polymerase ribozyme fitness, log enrichment relative to wild type (log ratio); higher = more active; in vitro selection for triplet polymerase activity
Fewer inactive variants are shown than the library holds.
Assign class by polymerase ribozyme fitness (log ratio): not lower than -2 means label 1; lower than -2 means label 0.

U6C G124C C129A; label 0
U4C C87G A107G; label 0
G94U G141C U144G; label 1
A23U G42C G88C C105G C116G; label 0

Hi team, for A49G G59U A97U G143A , is the recorded polymerase ribozyme fitness (log ratio) at or above -2?
label 0

Hi team, for `G71U` , is the recorded polymerase ribozyme fitness (log ratio) at or above -2?
label 1

Hi team, for C105G G141C , is the recorded polymerase ribozyme fitness (log ratio) at or above -2?
label 0

Hi team, for G46A C96U U134G A138G , is the recorded polymerase ribozyme fitness (log ratio) at or above -2?
label 0

Hi team, for C96G C114U , is the recorded polymerase ribozyme fitness (log ratio) at or above -2?
label 0

Hi team, for C5A U55G G68C , is the recorded polymerase ribozyme fitness (log ratio) at or above -2?
label 0

Hi team, for C85U G126A A142G , is the recorded polymerase ribozyme fitness (log ratio) at or above -2?
label 1

Hi team, for A22U A37U C95U U146A , is the recorded polymerase ribozyme fitness (log ratio) at or above -2?
label 1

Hi team, for U45A G58A G83A U148C , is the recorded polymerase ribozyme fitness (log ratio) at or above -2?
label 0

Hi team, for A3G A30C C51U U55G U61A G68U G83C A142G , is the recorded polymerase ribozyme fitness (log ratio) at or above -2?
label 0

Hi team, for G86U C103A A121G , is the recorded polymerase ribozyme fitness (log ratio) at or above -2?
label 0

Hi team, for C85U C149A , is the recorded polymerase ribozyme fitness (log ratio) at or above -2?
label 0
